# ASSAY COMMENT: Oral bioavailability in Sprague-Dawley rat at 5.6 mg/kg
# Type: ADME, organism-based
# STUDY CONDITIONS: in vivo
QUANTITY: bioavailability (%)
Numbers only, in %.

Ask: Look up bioavailability for this compound: COc1ccc2ncc(F)c([C@@H](O)CN3CCC(NCc4cc5c(cn4)OCCO5)CC3)c2n1
Result: 51

---

# ASSAY COMMENT: AUC in Beagle dog at 4 mg/kg, po
# Type: ADME, organism-based, Canis lupus familiaris
# Parameters: dose 4 mg/kg, route oral
# STUDY CONDITIONS: plasma
QUANTITY: AUC (ng·h/mL)
Answers are plain numbers, in ng·h/mL.

Ask: Would you kindly share the measured AUC for COc1ccc2ncc(F)c([C@@H](O)CN3CCC(NCc4cc5c(cn4)OCCO5)CC3)c2n1 ?
Result: 2510
